Data credit: paper PMC5111791

target: eIF4E (Homo sapiens); assay: Radiolabelled capped RNA - eIF4E UV cross-linking competition assay; type: binding; parameters: Expression and purification of eIF4E followed a modified procedure of that already published; made in house; conditions: capped RNA 5 nM, eIF4E 1.5 μM
Sequence (P06730 whole entry): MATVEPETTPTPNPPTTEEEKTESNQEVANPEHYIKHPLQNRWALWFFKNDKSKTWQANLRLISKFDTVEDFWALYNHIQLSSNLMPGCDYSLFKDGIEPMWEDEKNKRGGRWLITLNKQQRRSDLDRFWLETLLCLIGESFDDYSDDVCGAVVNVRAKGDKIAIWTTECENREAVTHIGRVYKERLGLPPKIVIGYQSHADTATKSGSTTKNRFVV
assay_readout: inhibition at 100 µM (%)

Here are 3 compounds together with their reported answers.
>>> experimental_result("Nc1nc2c(c(=O)[nH]1)[n+](Cc1ccccc1)cn2[C@@H]1O[C@H](CNS(=O)(=O)C(F)(F)F)[C@@H](O)[C@H]1O")
42.9
>>> experimental_result("C[n+]1cn([C@@H]2O[C@H](CNC(=O)Cc3nnn[nH]3)[C@@H](O)[C@H]2O)c2nc(N)[nH]c(=O)c21 [Compound 11a]")
25.8
>>> experimental_result("O=C1CC(c2c(Cl)cccc2Cl)c2c(n3ccsc3nc2=O)N1 (stereo not shown)")
33.8

A. CC(C)CNC(=S)N(Cc1ccccc1)Cc1cc2cc3c(cc2[nH]c1=O)OCO3
B. N=C1NC(=O)/C(=C/c2ccc(Sc3ccc(Cl)cc3)o2)S1
C. CC(C)c1ccc(C[n+]2cn([C@@H]3O[C@H](CNc4c(O)c(=O)c4=O)[C@@H](O)[C@H]3O)c3nc(N)[nH]c(=O)c32)cc1
D. CCOc1ccc(-n2c(SCC(=O)O)nnc2-c2cccnc2)cc1 [Compound 12a]
Sequence the entries by inhibition at 100 µM, beginning with the highest number. Please respond with the labels ordered as the question requires.
A, D, C, B
(A: 47.5%, D: 10.2%, C: 6.5%, B: 3.5%)

----------
target: eIF4E (Homo sapiens); assay: Fluorescence polarisation (FP) assay: displacement of EDA-m^7GDP-ATTO-465 tracer from eIF4E; conditions: read-out: FP assay Inhibition (%)
assay_readout: inhibition at 100 µM (%)

Here are 5 molecules together with their reported answers.
>>> experimental_result("Cc1ccc(-n2c(SCC(N)=O)nnc2-c2ccncc2)cc1 [Compound 12b]")
25.8
>>> experimental_result("C[n+]1cn([C@@H]2O[C@H](CNc3c(O)c(=O)c3=O)[C@@H](O)[C@H]2O)c2nc(N)[nH]c(=O)c21")
14.4
>>> experimental_result("CCOc1ccc(-n2c(SCC(=O)O)nnc2-c2cccnc2)cc1 [Compound 12a]")
13.6
>>> experimental_result("Nc1nc2c(c(=O)[nH]1)[n+](Cc1ccccc1)cn2[C@@H]1O[C@H](CNS(=O)(=O)C(F)(F)F)[C@@H](O)[C@H]1O")
89
>>> experimental_result("C[n+]1cn([C@@H]2O[C@H](CNC(=O)Cc3nnn[nH]3)[C@@H](O)[C@H]2O)c2nc(N)[nH]c(=O)c21 [Compound 11a]")
9.7

1. Nc1nc2c(c(=O)[nH]1)[n+](Cc1ccc(F)cc1)cn2[C@@H]1O[C@H](CNc2c(O)c(=O)c2=O)[C@@H](O)[C@H]1O
2. CC(C)c1ccc(C[n+]2cn([C@@H]3O[C@H](CNc4c(O)c(=O)c4=O)[C@@H](O)[C@H]3O)c3nc(N)[nH]c(=O)c32)cc1
3. CC(C)CNC(=S)N(Cc1ccccc1)Cc1cc2cc3c(cc2[nH]c1=O)OCO3
Hey, can you sort those molecules up there by inhibition at 100 µM, smallest first? Please respond with the labels ordered as the question requires.
2, 1, 3
(2: 1.8%, 1: 3.9%, 3: 68.1%)

A. Cc1ccc(-n2c(SCC(N)=O)nnc2-c2cccnc2)cc1 [Compound 12c]
B. Cc1cccc(C[n+]2cn([C@@H]3O[C@H](CNc4c(O)c(=O)c4=O)[C@@H](O)[C@H]3O)c3nc(N)[nH]c(=O)c32)c1
Parameter metric = inhibition at 100 µM. Return the lower-valued option from A and B . Field: selected label. Fill in the label of the entry you choose.
A

a. COc1cccc(C[n+]2cn([C@@H]3O[C@H](CNc4c(O)c(=O)c4=O)[C@@H](O)[C@H]3O)c3nc(N)[nH]c(=O)c32)c1
b. Nc1nc2c(c(=O)[nH]1)[n+](Cc1ccccc1)cn2[C@@H]1O[C@H](CNc2c(O)c(=O)c2=O)[C@@H](O)[C@H]1O
Parameter metric = inhibition at 100 µM. Return the lower-valued option from a and b . Field: selected label. Fill in the label of the entry you choose.
a

----------
biological target: eIF4E (Homo sapiens); assay: Fluorescence polarisation (FP) assay: displacement of EDA-m^7GDP-ATTO-465 tracer from eIF4E; conditions: at 100 μM; tracer 10 nM, eIF4E 90 nM
assay_readout: FP assay Inhibition (%)

Here are 4 compounds together with their reported answers.
>>> experimental_result("Cc1cc2cc(C(c3nnnn3C3CCCC3)N3CCC(C)CC3)c(=O)[nH]c2cc1C (centres unmarked)")
"Inactive"
>>> experimental_result("CC(C)(C)c1cc(C[n+]2cn([C@@H]3O[C@H](CNc4c(O)c(=O)c4=O)[C@@H](O)[C@H]3O)c3nc(N)[nH]c(=O)c32)cc(C(C)(C)C)c1")
"Inactive"
>>> experimental_result("N=C1NC(=O)/C(=C/c2ccc(Sc3ccc(Cl)cc3)o2)S1")
"Inactive"
>>> experimental_result("O=C1CC(c2c(Cl)cccc2Cl)c2c(n3ccsc3nc2=O)N1 (centres unmarked)")
"Inactive"

Shift focus to the following entry.
Using the record for Nc1nc2c(c(=O)[nH]1)[n+](Cc1cccc(C(F)(F)F)c1)cn2[C@@H]1O[C@H](CNc2c(O)c(=O)c2=O)[C@@H](O)[C@H]1O , report its FP assay Inhibition (%).
Inactive

----------
system: HeLa cells; assay: ^35S-Met incorporation assay (HeLa); details: Homo sapiens, HeLa, 24 h, read-out: ^35S-Met incorporation assay IC50 (HeLa)
assay_readout: pIC50
Remember, pIC50 is on a log scale: it is -log10 of the molar concentration.

Give the reported pIC50 for CC(C)CNC(=S)N(Cc1ccccc1)Cc1cc2cc3c(cc2[nH]c1=O)OCO3 [Compound 14] (system: HeLa cells).
4.45

----------
biological target: rabbit reticulocyte lysate (RRL) system, luciferase synthesis; experiment: Rabbit reticulocyte lysate in vitro translation assay primed with luciferase RNA; details: luciferase expression
assay_readout: IC50 (µM)

Here are 2 compounds together with their reported answers.
>>> experimental_result("Cn1c[n+]([C@@H]2O[C@H](COP(=O)(O)O)[C@@H](O)[C@H]2O)c2nc(N)[nH]c(=O)c21 [m^7GMP, m^7G monophosphate, reference compound]")
46.9
>>> experimental_result("Nc1nc2c(c(=O)[nH]1)[n+](Cc1ccccc1)cn2[C@@H]1O[C@H](CNS(=O)(=O)C(F)(F)F)[C@@H](O)[C@H]1O")
65.9

a. Cn1c[n+]([C@@H]2O[C@H](COP(=O)([O-])OP(=O)(O)OP(=O)(O)O)[C@@H](O)[C@H]2O)c2nc(N)[nH]c(=O)c21 [m^7GTP, reference compound]
b. CC(C)CNC(=S)N(Cc1ccccc1)Cc1cc2cc3c(cc2[nH]c1=O)OCO3
Parameter metric = IC50. Return the lower-valued option from a and b . Field: selected label. Fill in the label of the entry you choose.
a
(a: 8.6 µM, b: 65.1 µM)

----------
# melting point values compiled below

>>> experimental_result("Nc1nc2c(c(=O)[nH]1)[n+](Cc1cccc(Cl)c1)cn2[C@@H]1O[C@H](CNc2c(O)c(=O)c2=O)[C@@H](O)[C@H]1O")
"193 to 195 °C"
>>> experimental_result("COc1cccc(C[n+]2cn([C@@H]3O[C@H](CNc4c(O)c(=O)c4=O)[C@@H](O)[C@H]3O)c3nc(N)[nH]c(=O)c32)c1")
"177 to 179 °C"
>>> experimental_result("C[n+]1cn([C@@H]2O[C@H](CNc3c(O)c(=O)c3=O)[C@@H](O)[C@H]2O)c2nc(N)[nH]c(=O)c21")
"192 to 194 °C"
>>> experimental_result("Cc1cccc(C[n+]2cn([C@@H]3O[C@H](CNc4c(O)c(=O)c4=O)[C@@H](O)[C@H]3O)c3nc(N)[nH]c(=O)c32)c1")
"187 to 190 °C"
>>> experimental_result("Nc1nc2c(c(=O)[nH]1)[n+](Cc1cccc(C(F)(F)F)c1)cn2[C@@H]1O[C@H](CNc2c(O)c(=O)c2=O)[C@@H](O)[C@H]1O")
"221 to 224 °C"
>>> experimental_result("Nc1nc2c(c(=O)[nH]1)[n+](Cc1ccccc1)cn2[C@@H]1O[C@H](CNc2c(O)c(=O)c2=O)[C@@H](O)[C@H]1O")
"186 to 188 °C"

Shift focus to the following entry.
Using the record for CC(C)c1ccc(C[n+]2cn([C@@H]3O[C@H](CNc4c(O)c(=O)c4=O)[C@@H](O)[C@H]3O)c3nc(N)[nH]c(=O)c32)cc1 , report its melting point.
167 to 169 °C
